- PROCEDURE_DETAILS: Volume of distribution at steady state in cynomolgus monkey at 0.2 mg/kg, iv by LC-MS/MS analysis
- Type: ADME, organism-based, Macaca fascicularis
- CONDITION_SET: in vivo, read-out: Vdss
QUANTITY_MEASURED: Vd (L/kg)

>>> recorded_number("Cc1ccc(OC2CN(c3cccc(COC(=O)NC(=N)N)c3F)C2)cn1.O=C(O)C(O)C(O)C(=O)O")
1.39

###

- STUDY_TARGET: UniProtKB Q16853
- Sequence (Q16853 whole entry): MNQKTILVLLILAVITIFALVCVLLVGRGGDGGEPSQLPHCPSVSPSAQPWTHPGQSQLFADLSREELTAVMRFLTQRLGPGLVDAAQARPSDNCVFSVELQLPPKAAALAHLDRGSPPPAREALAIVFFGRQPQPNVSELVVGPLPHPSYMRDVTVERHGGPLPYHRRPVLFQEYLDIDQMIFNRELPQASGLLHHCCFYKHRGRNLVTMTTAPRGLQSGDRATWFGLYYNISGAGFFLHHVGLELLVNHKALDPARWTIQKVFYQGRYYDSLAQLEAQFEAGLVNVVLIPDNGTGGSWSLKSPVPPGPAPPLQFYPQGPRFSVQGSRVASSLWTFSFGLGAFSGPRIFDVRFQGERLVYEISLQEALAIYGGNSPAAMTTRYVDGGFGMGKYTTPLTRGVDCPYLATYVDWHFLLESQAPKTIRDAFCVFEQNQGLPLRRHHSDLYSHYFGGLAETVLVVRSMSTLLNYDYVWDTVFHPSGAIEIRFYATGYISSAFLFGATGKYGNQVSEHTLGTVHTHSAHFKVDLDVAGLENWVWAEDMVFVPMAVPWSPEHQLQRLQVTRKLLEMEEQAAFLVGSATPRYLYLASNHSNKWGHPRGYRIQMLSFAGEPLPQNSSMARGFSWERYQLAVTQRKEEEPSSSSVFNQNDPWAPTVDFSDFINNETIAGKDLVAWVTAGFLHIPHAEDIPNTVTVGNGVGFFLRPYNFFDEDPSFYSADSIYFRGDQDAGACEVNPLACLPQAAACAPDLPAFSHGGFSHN
- PROCEDURE_DETAILS: Inhibition of human VAP-1 expressed in CHO cells preincubated for 20 mins followed by [14C]-benzylamine addition measured after 1 hr by scintillation spectrometric analysis
QUANTITY_MEASURED: log10 IC50 (log10 of the value in nM)

>>> recorded_number("CN(Cc1cccc(-c2cnc(N3CCOCC3)nc2)c1)C(=O)CN.O=C(O)C(O)C(O)C(=O)O")
1.49
>>> recorded_number("Cl.Cl.Cl.N=C(N)NC(=O)OCc1cccc(N2CCN(c3ccncc3)CC2)c1")
1.11
>>> recorded_number("N=C(N)NC(=O)Cc1cccc(CCc2cnc(N3CCOCC3)nc2)c1")
1.73
>>> recorded_number("Cc1c(COC(=O)NC(=N)N)cccc1-c1cnc(N2CCOCC2)nc1.O=C(O)C(O)C(O)C(=O)O")
2.61
>>> recorded_number("Cl.Cl.N=C(N)NC(=O)OCc1cccc(-c2cnc(N3CCOCC3)nc2)c1Cl")
2.78
>>> recorded_number("Cl.Cl.Cl.N=C(N)NC(=O)OCc1cccc(N2CCC(N3CCOCC3)CC2)c1")
2.20
>>> recorded_number("CN(Cc1cccc(-c2cnc(N3CCOCC3)nc2)c1)C(=O)NC(=N)N")
2.72
>>> recorded_number("Cl.Cl.Cl.N=C(N)NC(=O)OCc1cccc(N2CCN(c3ccccn3)CC2)c1")
2.15
>>> recorded_number("N=C(N)NC(=O)Cc1cccc(-c2cnc(N3CCOCC3)nc2)c1")
1.75
>>> recorded_number("N=C(N)Nc1ccc(CCc2cnc(N3CCOCC3)nc2)cc1")
3.71

Provenance of the data: ChEMBL document CHEMBL4043269
